Attribute: IC50
Target: human recombinant ROCK II (Homo sapiens)
Construct: recombinant human ROCK-II residues 11-552; His6 (N); purchased Upstate Ltd., Dundee, UK
Sequence (O75116 11-552): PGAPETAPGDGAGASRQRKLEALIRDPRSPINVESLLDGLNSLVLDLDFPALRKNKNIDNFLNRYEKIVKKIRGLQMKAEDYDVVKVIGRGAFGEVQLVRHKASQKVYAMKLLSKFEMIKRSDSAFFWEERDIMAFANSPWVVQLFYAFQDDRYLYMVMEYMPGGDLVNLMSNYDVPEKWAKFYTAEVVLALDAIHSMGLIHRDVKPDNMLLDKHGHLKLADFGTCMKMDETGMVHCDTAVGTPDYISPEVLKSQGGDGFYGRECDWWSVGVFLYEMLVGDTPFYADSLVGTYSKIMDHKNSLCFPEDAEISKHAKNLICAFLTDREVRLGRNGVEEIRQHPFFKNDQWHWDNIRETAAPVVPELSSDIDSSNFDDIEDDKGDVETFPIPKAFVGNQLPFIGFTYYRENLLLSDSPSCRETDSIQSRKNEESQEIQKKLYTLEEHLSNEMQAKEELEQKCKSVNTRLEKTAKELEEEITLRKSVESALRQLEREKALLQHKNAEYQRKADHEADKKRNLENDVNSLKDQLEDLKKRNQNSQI
Experiment notes: Determination of Rho Kinase Inhibition (ROCK II, Caliper peptide phosphorylation assay)
Format: biochemical
Condition set: 60 min incubation at 32° C., respective form (salt or free base) as obtained in the examples
Where a name gives a salt, the structure may show the parent alone.

Short answer for Cc1ccc(CN2CC[C@H](Nc3ccc4c(=O)[nH]ccc4c3)C2)cc1 [Example 236] : IC50 was ≤ 1000 nM

Short answer for O=c1[nH]ccc2cc(SC3CCNCC3)c(Cl)cc12 [Example 286, hydrochloride] : IC50 was ≤ 1000 nM

Short answer for CCCN1CCC[C@@H](Nc2ccc3c(=O)[nH]ccc3c2)C1 [Example 195] : IC50 was 1000 to 10000 nM

Short answer for CN(c1ccc2cnccc2c1)C1CCN(CCC(F)(F)F)CC1 [Example 99] : IC50 was 1000 to 10000 nM

Short answer for Brc1cc2cnccc2cc1SC1CCCNCC1 (racemic) [Example 271, hydrochloride] : IC50 was ≤ 1000 nM

Short answer for O=c1[nH]ccc2cc(NC3CN(Cc4cccc(Cl)c4F)C3)ccc12 [Example 249] : IC50 was ≤ 1000 nM

Short answer for O=c1[nH]ccc2cc(N[C@H]3CCN(Cc4ccc5ccccc5c4)C3)ccc12 [Example 243] : IC50 was ≤ 1000 nM

Short answer for c1cc2cc(N[C@@H]3CCCN(CC4CC4)C3)ccc2cn1 [Example 166] : IC50 was 1000 to 10000 nM

Short answer for O=c1[nH]ccc2cc(N[C@H]3CCN(Cc4cccc(Cl)c4F)C3)ccc12 [Example 220] : IC50 was ≤ 1000 nM
